assay: Oral bioavailability in cynomolgus monkey at 2.0; assay type: ADME, organism-based, Macaca fascicularis; conditions: in vivo
READOUT KIND: bioavailability
Answer as a quantity: numeral, then unit.

Could you please provide reported bioavailability for C[C@](O)(c1ccc(C(=O)N(C2CC2)[C@H]2CC[C@H](c3cccnc3)CC2)cc1)C(F)(F)F ? Thanks!
64%

---

molecular target: 11-beta-hydroxysteroid dehydrogenase 1 (Homo sapiens); experiment: Inhibition of human recombinant 11beta-HSD1 expressed in HEK293 cells in presence of 3% human serum albumin; type: cell-based
Sequence (P28845 whole entry): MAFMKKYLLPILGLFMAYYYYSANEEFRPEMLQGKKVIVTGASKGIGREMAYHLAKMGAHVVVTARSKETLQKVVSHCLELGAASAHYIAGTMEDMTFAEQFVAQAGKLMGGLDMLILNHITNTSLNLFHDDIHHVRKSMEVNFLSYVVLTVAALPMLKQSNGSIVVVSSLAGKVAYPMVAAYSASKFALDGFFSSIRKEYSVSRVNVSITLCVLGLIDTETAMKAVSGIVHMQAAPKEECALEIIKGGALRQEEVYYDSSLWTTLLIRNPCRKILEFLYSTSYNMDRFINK
READOUT KIND: log10 of IC50 (log10 of the value in nM)
The figures below represent log10 of IC50, where IC50 is stated in nM.

# COMPOUND, SYSTEM NAME, READOUT KIND, READOUT VALUE
rows = [
    ("C[C@](O)(c1ccc(C(=O)N(C2CCCCC2)C2CC2)cc1)C(F)(F)F", "11-beta-hydroxysteroid dehydrogenase 1 (Homo sapiens)", "log10 of IC50", 1.58),
    ("CC(O)(c1ccc(C(=O)N(CC2CC2)C2CCCCC2)cc1)C(F)(F)F (racemic)", "11-beta-hydroxysteroid dehydrogenase 1 (Homo sapiens)", "log10 of IC50", 2.93),
    ("C[C@](O)(c1ccc(C(=O)N(C2CC2)[C@H]2CC[C@@H](c3ccccc3)CC2)cc1)C(F)(F)F", "11-beta-hydroxysteroid dehydrogenase 1 (Homo sapiens)", "log10 of IC50", 2.09),
    ("C[C@](O)(c1ccc(C(=O)N(CC(F)(F)F)C2CCCCC2)cc1)C(F)(F)F", "11-beta-hydroxysteroid dehydrogenase 1 (Homo sapiens)", "log10 of IC50", 2.21),
    ("C[C@](O)(c1ccc(C(=O)N(C2CC2)[C@H]2CC[C@H](CCC#N)CC2)cc1)C(F)(F)F", "11-beta-hydroxysteroid dehydrogenase 1 (Homo sapiens)", "log10 of IC50", 1.04),
    ("C[C@](O)(c1ccc(C(=O)N(C2CC2)[C@H]2CC[C@H](c3ccc(C#N)cc3)CC2)cc1)C(F)(F)F", "11-beta-hydroxysteroid dehydrogenase 1 (Homo sapiens)", "log10 of IC50", 2.21),
]

Entry C[C@](O)(c1ccc(C(=O)N(C2CC2)[C@H]2CC[C@H](F)CC2)cc1)C(F)(F)F needs its log10 of IC50 filled in; supply it.
2.15

Provide one value: measured log10 of IC50 of C[C@](O)(c1ccc(C(=O)N(C2CC2)[C@H]2CC[C@H](c3ccccc3)CC2)cc1)C(F)(F)F
2.19

Item C[C@](O)(c1ccc(C(=O)N(C2CC2)[C@H]2CC[C@H](c3cccnc3)CC2)cc1)C(F)(F)F : provide log10 of IC50
2.09

Using the record for CCN(C(=O)c1ccc([C@](C)(O)C(F)(F)F)cc1)C1CCCCC1 , state its measured log10 of IC50.
1.40
